Molecular target: HLA-A*26:01
Test: IEDB peptide-MHC binding, purified MHC/competitive/fluorescence; filed as Kd, often an IC50 or EC50 that approximates it; bounds were set here for any values at or beyond the usual limits of such assays
Conditions: source organism: Macaca mulatta
MEASURE NAME: Kd

Fill blank: measured Kd of the sequence SAEVVTLWY is ____.
≥ 20 µM

* * *

Target: HLA-A*29:02
Assay: IEDB peptide-MHC binding, purified MHC/direct/fluorescence; filed as Kd, often an IC50 or EC50 that approximates it; bounds were set here for any values at or beyond the usual limits of such assays
Conditions: source organism: Sudan ebolavirus - Maleo (1979)
MEASURE NAME: Kd

Fill blank: measured Kd of the sequence MHYKLDEVL is ____.
≥ 20 µM
